These entries and their values trace back to ChEMBL document CHEMBL1143334.

- protocol_summary: Metabolic stability in human liver microsomes after 30 mins
- Assay type: ADME, Microsome
- test_context: read-out: Stability
measurement_type: remaining at 0.5 h (%)

The following molecules have reported results that may help.
molecule	remaining at 0.5 h / %
CC12CCCC(/C=C/C(=O)NS(=O)(=O)c3cc(Cl)c(Cl)s3)=C1N(Cc1ccc(Cl)cc1Cl)C(=O)C2 (stereo not drawn)	58
CC12CCCC(/C=C/C(=O)NS(=O)(=O)c3cc(Cl)c(Cl)s3)=C1N(Cc1cccc(Cl)c1Cl)C(=O)C2 (stereo not drawn)	80
CC12CCCC(/C=C/C(=O)NS(=O)(=O)c3cc(Cl)cc(Cl)c3)=C1N(Cc1ccc(F)c(F)c1)C(=O)C2 (stereo not drawn)	68
CC12CCCC(/C=C/C(=O)NS(=O)(=O)c3cc(Cl)c(Cl)s3)=C1N(Cc1ccc3ccccc3c1)C(=O)C2 (stereo not drawn)	64
CC12CCCC(/C=C/C(=O)NS(=O)(=O)c3ccc(F)c(F)c3)=C1N(Cc1ccc(F)c(F)c1)C(=O)C2 (stereo not drawn)	79
COc1cccc(CN2C(=O)CC3(C)CCCC(/C=C/C(=O)NS(=O)(=O)c4cc(Cl)c(Cl)s4)=C23)c1 (stereo not drawn)	62

A: CC12CCCC(/C=C/C(=O)NS(=O)(=O)c3ccc(Cl)s3)=C1N(Cc1ccc(Cl)cc1Cl)C(=O)C2 (stereo not drawn)
B: CC12CCCC(/C=C/C(=O)NS(=O)(=O)c3cc(F)c(F)cc3F)=C1N(Cc1cccc(Cl)c1Cl)C(=O)C2 (stereo not drawn)
Ask: Select one. Lower remaining at 0.5 h: A or B Kindly give the label for the entry you pick.
Reply: B
(B: 49%, A: 75%)
